# subject of test: ScFus1
# assay protocol: SPOT peptide array binding signal intensity (averaged, normalized) (arbitrary units (background-subtracted, floor 0; scale differs between SH3 domains)); higher = stronger binding of the SH3 domain to the peptide
Overview of recorded SPOT peptide array binding signal intensity for various binders
Form rule: numeric answer, no unit written next to it.

Use the examples below as a reference point.
| binder | reported value |
| --- | --- |
| RFKRHRLEFPFNESE | 286 |
| QFDLKMPSKPIHNLK | 70 |
| SGVRLPAPPPPPRRG | 3.5 |

# context switch: different binder, same SPOT peptide array binding signal intensity
What measured SPOT peptide array binding signal intensity goes with NTMKKRPAPPSLPSL ?
457
